Taken from patent US20240247080A1.

Kindly state EC50 hGIPR 0.5% hP (CreLuc) for each of the entries shown.
Target Or Test System: T1, GIP receptor (human (printed as hGIPR), UniProt P48546 22-466)
T1 sequence (looked up): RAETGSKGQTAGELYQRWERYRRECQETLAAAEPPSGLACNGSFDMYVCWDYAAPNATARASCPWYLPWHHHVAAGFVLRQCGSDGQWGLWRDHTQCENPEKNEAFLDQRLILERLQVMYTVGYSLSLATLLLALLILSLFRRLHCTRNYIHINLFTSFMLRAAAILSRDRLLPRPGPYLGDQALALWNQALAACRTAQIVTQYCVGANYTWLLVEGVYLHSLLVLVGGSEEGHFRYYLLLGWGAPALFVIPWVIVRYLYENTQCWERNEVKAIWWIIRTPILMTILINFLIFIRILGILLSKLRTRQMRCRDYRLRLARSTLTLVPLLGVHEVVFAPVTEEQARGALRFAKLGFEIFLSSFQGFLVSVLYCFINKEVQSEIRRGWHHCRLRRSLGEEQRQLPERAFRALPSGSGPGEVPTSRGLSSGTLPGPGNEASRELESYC
Procedure Summary: cell-based or functional assay
Starred links: 1 amine or outer side, 2 acyl side, 3 side chain; linkers in the order of their positions; H or OH if unused. Non-standard residues stand in square brackets, D forms with d. Groups on a side chain read outwards from the residue. No end group written: not given here. *: point of attachment. C20 diacid = O=C(O)CCCCCCCCCCCCCCCCCCC(=O)*; γGlu = O=C(O)[C@H](CCC(=O)[*:2])N[*:1]; AEEA = NCCOCCOCC(=O)O; Aib = CC(C)(N)C(=O)O
Give bare numbers, in nM.

Recorded EC50 hGIPR 0.5% hP (CreLuc), per entry:
Binder | Measurement Kind | Units Label | Observed Value
Y[Aib]EGTFTSDYSI[Aib]LEKQAQ[Aib]EFVQWLIKGGPSEGASLRHYYNWLTRQRY-NH2 (not fully specified (residue 28); also: TFA salt) [Compound 207] | EC50 hGIPR 0.5% hP (CreLuc) | nM | 0.63
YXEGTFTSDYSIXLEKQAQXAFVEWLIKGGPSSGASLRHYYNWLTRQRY (Aib at 2, 13, 20; D-Tyr at 49; K28 side chain carries C20DA-gGlu-gGlu-gGlu-gGlu-gGlu-gGlu-eLys; C-terminal amide) [Compound 214] | EC50 hGIPR 0.5% hP (CreLuc) | nM | 0.23
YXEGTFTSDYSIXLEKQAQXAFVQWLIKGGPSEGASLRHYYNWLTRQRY (Aib at 2, 13, 20; K28 side chain carries C20DA-gGlu-gGlu-gGlu-gGlu-gGlu-gGlu-eLys; C-terminal amide) [Compound 220] | EC50 hGIPR 0.5% hP (CreLuc) | nM | 0.29

# batch size: 7; output EC50 hGIPR 0.5% hP (CreLuc) per entry
1. YXEGTFTSDYSIXLEKQAQXAFVEWLIKGGPSSGALLRHYYNWLTRQRY (Aib at 2, 13, 20; K28 side chain carries C20DA-gGlu-gGlu-gGlu-gGlu-gGlu-gGlu-eLys; C-terminal amide) [Compound 197]
2. YXEGTFTSDYSIXLEKQAQXAFVEWLIKGGPSYGASLRHYYNWLTRQRY (Aib at 2, 13, 20; K28 side chain carries C20DA-gGlu-gGlu-gGlu-gGlu-gGlu-gGlu-eLys; C-terminal amide) [Compound 232]
3. Y[Aib]EGTFTSDYSI[Aib]LEKQAQ[Aib]AFVEWLIK([AEEA-AEEA-γGlu-γGlu-γGlu-γGlu-C20 diacid])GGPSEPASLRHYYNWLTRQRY-NH2 (also: TFA salt) [Compound 226]
4. YXEGTFTSDYSIXLEKQAQXAFVEWLIKGGPSEPASLRHYYNWLTRQRY (Aib at 2, 13, 20; K28 side chain carries C20DA-gGlu-gGlu-gGlu-gGlu-gGlu-gGlu-eLys; C-terminal amide) [Compound 233]
5. Y[Aib]EGTFTSDYSI[Aib]LE[Aib]QAQ[Aib]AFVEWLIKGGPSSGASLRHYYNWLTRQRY-NH2 (not fully specified (residue 28); also: TFA salt) [Compound 199]
6. YXEGTFTSDYSIXLEKQAQXAFVEWLIKGGPSEGQSLRHYYNWLTRQRY (Aib at 2, 13, 20; K28 side chain carries C20DA-gGlu-gGlu-gGlu-gGlu-gGlu-gGlu-eLys; C-terminal amide) [Compound 227]
7. Y[Aib]EGTFTSDYSI[Aib]LEKQAQ[Aib]AFVEWLIKGGPSSYASLRHYYNWLTRQRY-NH2 (not fully specified (residue 28); also: TFA salt) [Compound 183]

[0.43, 0.19, 0.43, 0.08, 0.94, 0.06, 0.28]
